tested on: UACC-257 melanoma; assay: NCI tumour cell line growth inhibition, 48 h
quantityKind: TGI (µM)
Please reply with the bare figure in µM and do not write the unit itself.

O=C(c1ccc2ccccc2c1)c1c(C(F)(F)F)n([O-])c2ccc(Cl)cc2[n+]1=O; 3.13
O=c1oc(-c2ccc(O)c(O)c2)cc2cccc(O)c12; 61.3
COC(=O)[C@]12CC[C@H]3CN(C(=O)OCc4ccccc4)[C@H]([C@H]31)[C@H](c1ccco1)N2S(=O)(=O)c1ccc(C)cc1; 50.9

Inquiry: Fill in reported TGI for this entry: C=CCO/N=C/c1cc(NC(=S)c2ccoc2C)ccc1Cl
Reply text: 34
